# settings: in methanol, 308.15 K
metric_name: solubility (mole fraction)
Form: value (number only, do not type unit).

Input line: Which value of solubility (mole fraction) has been reported for CCCSc1ccc2nc(NC(=O)OC)[nH]c2c1 in the records?
Output line: 0.000273

====

# settings: in methanol, 278.15 K
metric_name: solubility (mole fraction)
Just the number.

Input line: Request the reported solubility (mole fraction) associated with CCCSc1ccc2nc(NC(=O)OC)[nH]c2c1
Output line: 8.85e-05

====

# settings: in acetone, 303.15 K
metric_name: solubility (mole fraction)
Give the figure only, with no unit attached.

Input line: // returns reported solubility (mole fraction) for input CCCSc1ccc2nc(NC(=O)OC)[nH]c2c1
Output line: 0.00344
